biological target: ABL1 (64-515) (Homo sapiens (Human), UniProt P00519); assay: Caliper ABL1 (64-515) assay (microfluidic mobility shift); format: biochemical
Sequence (P00519 64-515): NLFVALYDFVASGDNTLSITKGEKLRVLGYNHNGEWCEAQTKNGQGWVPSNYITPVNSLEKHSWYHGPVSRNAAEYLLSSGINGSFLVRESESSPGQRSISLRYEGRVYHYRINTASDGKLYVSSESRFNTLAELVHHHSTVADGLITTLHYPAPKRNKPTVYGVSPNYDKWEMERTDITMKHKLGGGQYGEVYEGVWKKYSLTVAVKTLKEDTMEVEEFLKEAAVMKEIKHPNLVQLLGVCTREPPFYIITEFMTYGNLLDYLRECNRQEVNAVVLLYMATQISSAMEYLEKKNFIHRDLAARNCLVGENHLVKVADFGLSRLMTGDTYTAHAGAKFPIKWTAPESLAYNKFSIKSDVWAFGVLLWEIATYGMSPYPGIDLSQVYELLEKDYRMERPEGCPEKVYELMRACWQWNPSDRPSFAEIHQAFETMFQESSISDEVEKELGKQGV
OBSERVED_PROPERTY: IC50 (nM)
Number only, in nM; omit the unit.

{"SMILES_REPRESENTATION": "CCN(CCO)c1ncc(C(=O)Nc2ccc(SC(F)(F)F)cc2)cc1-c1cncc(C#N)c1", "IC50 [nM]": 1.8}
{"SMILES_REPRESENTATION": "Cc1ccc(-c2cc(C(=O)Nc3ccc(OC(F)(F)F)cc3)cnc2N2CC(C)(O)C2)cn1", "IC50 [nM]": 1.3}

What value of IC50 has been recorded for this entry: CN(C)[C@H]1CN(c2ncc(C(=O)Nc3ccc(OC(F)(F)F)cc3)cc2-c2cncnc2)C[C@@H]1O
8.5

What value of IC50 has been recorded for this entry: O=C(Nc1ccc(OC(F)(F)F)cc1)c1cnc(N2CC[C@@H](O)C2)c(-c2cncc(F)c2)c1
1.1
